protocol text: ADP-Glo luciferase interference without Dyrk1A, dose response, artefact control for Dyrk1A inhibitor project, biochemical, luminescence, cherry-pick, set 04 (AID 588432)
experimental setup: ADP-Glo luminescence without kinase, luciferase artifact; series mostly up to 12 µM
Calls of active or inactive are those of the source.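 How the source made its calls: active means luciferase inhibitors whose fitted dose curve gives a half-maximal potency within ten times the top tested dose; inconclusive means flat curve with 30 to 70% inhibition, or a poor fit; inactive means the rest.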
attribute measured: outcome

Name the recorded outcome for Brc1ccc(CNc2nccc(-c3ccc4c(c3)OCO4)n2)cc1Br .
inactive

Give its outcome value. Item: Cc1nc(CNc2ncnc3ccc(-c4ccoc4)cc23)cs1
inactive

I'd like to know its outcome. The molecule in question is c1nc(NCC2CCCC2)c2cc(-c3ccc4c(c3)OCO4)ccc2n1
inactive

Field request: outcome | item: c1cncc(CNc2nccc(-c3ccc4cn[nH]c4c3)n2)c1
inactive

What does the data say about its outcome? Entry: O=[N+]([O-])c1cc(Nc2nccc(-c3ccc4c(c3)OCO4)n2)cc(C(F)(F)F)c1
inactive

Sample c1cncc(CNc2nccc(-c3ccc4[nH]ncc4c3)n2)c1 — what was its outcome?
inactive

What outcome value was documented for this molecule, Clc1ccc(CNc2cc(-c3ccc4c(c3)OCO4)ncn2)cc1Cl ?
inactive

If you can, please state the reported outcome value of COc1cc(-c2ccc3ncnc(NCCc4cnc[nH]4)c3c2)cc(OC)c1OC .
inactive

Item COc1ccc(-c2nccc(NCc3ccc(C)cc3)n2)cc1 has what recorded outcome?
inactive

Given COc1ccc(-c2ccnc(NCc3ccc(Cl)c(Cl)c3)n2)cc1OC , state its recorded outcome.
inactive

# evaluate next
Quick one: outcome for c1cc(-c2ccc3c(c2)OCO3)nc(Nc2ccc3c(c2)OCO3)n1 ?
inactive

###

protocol text: ADP-Glo luciferase interference without Dyrk1A, dose response, artefact control for Dyrk1A inhibitor project, biochemical, luminescence, cherry-pick, set 04 (AID 588432)
experimental setup: ADP-Glo luminescence without kinase, luciferase artifact; series mostly up to 12 µM
Calls of active or inactive are those of the source.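 Rule for the calls: active = luciferase inhibitors whose fitted dose curve gives a half-maximal potency within ten times the top tested dose; inconclusive = flat curve with 30 to 70% inhibition, or a poor fit; inactive = the rest.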
attribute measured: outcome

Entry FC(F)(F)c1cc(Br)cc(Nc2nccc(-c3ccc4c(c3)OCO4)n2)c1 has what outcome?
inactive

I have this compound here, CCOC(=O)c1ccc(-c2ccc3ncnc(NCc4ccc(C)o4)c3c2)o1 , and I need its recorded outcome.
inactive

Fill blank: measured outcome of the compound Cc1c(-c2ccnc(NCc3cccnc3)n2)sc(=O)n1C is ____.
inactive
